These measurements were taken from paper PMC12416549.

Biological target: T1, TNFR1 (Homo sapiens, UniProt P19438)
T1 chain: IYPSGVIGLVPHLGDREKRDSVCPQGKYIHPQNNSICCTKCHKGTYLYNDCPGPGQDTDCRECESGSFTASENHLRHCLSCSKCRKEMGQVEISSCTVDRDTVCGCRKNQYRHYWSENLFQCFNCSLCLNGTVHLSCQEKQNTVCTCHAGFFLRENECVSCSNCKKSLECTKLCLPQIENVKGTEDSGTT
Test: yeast display SC50
Item-by-item account of apparent Kd (screen)
Give the number; nM is assumed, so skip it.

{"binder": "E19V (designed binder) SMEEEVEKAAKEYEKKKKVAIEKHLEKLKAKDKEAAERFLKELEEAAKEYAKDEAKTMSEEEAKRRAKKYKEKVLLSELSEEEQKEIKEAEEKLVRTILKYVEEAAK", "apparent Kd (screen) [nM]": 0.446}

Next:
Prompt: What measured apparent Kd (screen) goes with T57R (designed binder) SMEEEVEKAAKEYEKKKKEAIEKHLEKLKAKDKEAAERFLKELEEAAKEYAKDEAKRMSEEEAKRRAKKYKEKVLLSELSEEEQKEIKEAEEKLVRTILKYVEEAAK ?
Response: 0.49
